Catalogue of IC50 readings, one per entry.
biological target: human PD-1 / PD-L1-Ig binding on Jurkat cell line over-expressing human PD-1 (Jurkat-PD-1) (Homo sapiens); construct: expressed in transfected cells; host or cells: Jurkat; assay: Jurkat-PD-1 Cell Binding High-Content Screening Assay (CBA); assay type: cell-based; settings: Jurkat-PD-1 cells, PE-labeled PD-L1-Ig 20 nM final; read-out: Jurkat HPD1_PDL1 IC50
Where a SMILES comes first, the peptide text is derived from it. Bridges are numbered along the chain shown (N, C = ends). [ ]: non-standard residue; d: D form. Bip = N[C@@H](Cc1ccc(-c2ccccc2)cc1)C(=O)O; Cit = NC(=O)NCCC[C@H](N)C(=O)O; Orn = NCCC[C@H](N)C(=O)O; Dab = NCC[C@H](N)C(=O)O
Supply the numeric figure in nM, leaving out any unit text.

Compound	Data value
CC(C)C[C@@H]1NC(=O)[C@H](CCN)NC(=O)[C@@H](CC(C)C)NC(=O)[C@H](CCN)NC(=O)[C@H](CCCNC(N)=O)NC(=O)[C@H](Cc2ccc(-c3ccccc3)cc2)NC(=O)[C@H](C(C)C)NC(=O)[C@H](Cc2c[nH]c3ccccc23)NC(=O)[C@H](CC(=O)O)NC(=O)[C@H](Cc2ccc(O)cc2)NC(=O)[C@H](CC(N)=O)NC(=O)CSC[C@@H](C(=O)N[C@@H](C)C(N)=O)NC(=O)[C@H](CO)NC(=O)[C@H](C(C)C)NC1=O [Compound 1111] ({CH2CO}-NYDWV[Bip][Cit][Dab][dL][Dab]LVSCA-NH2; thioether N-14)	37.9
CC(C)C[C@H]1NC(=O)[C@H](CCCN)NC(=O)[C@H](CCC(=O)O)NC(=O)[C@H](Cc2ccc(-c3ccccc3)cc2)NC(=O)[C@H](C(C)C)NC(=O)[C@H](Cc2ccccc2F)NC(=O)[C@H](CC(=O)O)NC(=O)[C@H](Cc2ccc(C#N)cc2)NC(=O)[C@H](Cc2ccncc2)NC(=O)CSC[C@@H](C(=O)N[C@@H](C)C(N)=O)NC(=O)[C@H]([C@@H](C)O)NC(=O)[C@H](C(C)C)NC(=O)[C@H](CC2CCCCC2)NC(=O)[C@H](CCN)NC1=O [Compound 2216]	19.3
CC(C)C[C@@H]1NC(=O)[C@H](Cc2c[nH]c3ccccc23)NC(=O)[C@H](CC(=O)O)NC(=O)[C@H](Cc2ccc(O)cc2)NC(=O)[C@H](Cc2ccccc2)NC(=O)CSC[C@@H](C(=O)NCC(N)=O)NC(=O)[C@H](CO)NC(=O)[C@H](C(C)C)NC(=O)[C@H](CC(C)C)NC(=O)[C@H](CCN)NC(=O)[C@@H](CC(C)C)NC(=O)[C@H](CCCN)NC(=O)[C@H](C(C)C)NC(=O)[C@H](Cc2ccc(-c3ccccc3)cc2)NC1=O [Compound 1073] ({CH2CO}-FYDWL[Bip]V[Orn][dL][Dab]LVSCG-NH2; thioether N-14)	10
CC(C)C[C@@H]1NC(=O)[C@H](CCN)NC(=O)[C@@H](CC(C)C)NC(=O)[C@H](CC(N)=O)NC(=O)[C@H](C(C)C)NC(=O)[C@H](Cc2ccc(-c3ccccc3)cc2)NC(=O)[C@H](C(C)C)NC(=O)[C@H](Cc2c[nH]c3ccccc23)NC(=O)[C@H](CC(=O)O)NC(=O)[C@H](Cc2ccc(O)cc2)NC(=O)[C@H](CC(N)=O)NC(=O)CSC[C@@H](C(=O)N[C@@H](C)C(N)=O)NC(=O)[C@H]([C@@H](C)O)NC(=O)[C@H](C(C)C)NC1=O [Compound 1036] ({CH2CO}-NYDWV[Bip]VN[dL][Dab]LVTCA-NH2; thioether N-14)	26.4
CC(C)C[C@@H]1NC(=O)[C@H](Cc2c[nH]c3ccccc23)NC(=O)[C@H](CC(=O)O)NC(=O)[C@H](Cc2ccc(O)cc2)NC(=O)[C@H](Cc2ccccc2)NC(=O)CSC[C@@H](C(=O)N[C@@H](C)C(N)=O)NC(=O)[C@H](CO)NC(=O)[C@H](C(C)C)NC(=O)[C@H](CC(C)C)NC(=O)[C@H](CCN)NC(=O)[C@@H](CC(C)C)NC(=O)[C@H](CCN)NC(=O)[C@H](CCC(=O)O)NC(=O)[C@H](Cc2ccc(-c3ccccc3)cc2)NC1=O [Compound 1229] ({CH2CO}-FYDWL[Bip]E[Dab][dL][Dab]LVSCA-NH2; thioether N-14)	14.5

Quick check: IC50 of CC[C@H](C)[C@@H]1NC(=O)[C@H](Cc2ccc(-c3ccccc3)cc2)NC(=O)[C@H](C(C)C)NC(=O)[C@H](Cc2c[nH]c3ccccc23)NC(=O)[C@H](CC(=O)O)NC(=O)[C@H](Cc2ccncc2)NC(=O)[C@H](Cc2ccc(OCC(=O)O)cc2)NC(=O)CSC[C@@H](C(=O)N[C@@H](C)C(N)=O)NC(=O)[C@H]([C@@H](C)O)NC(=O)[C@H](C(C)C)NC(=O)[C@H](CC2CCCCC2)NC(=O)[C@H](CCN)NC(=O)[C@@H](CC(C)C)NC(=O)[C@H](CCCN)NC1=O [Compound 1332] ?
11.7

Quick check: IC50 of CC(C)C[C@H]1NC(=O)[C@H](CCCN)NC(=O)[C@H](CCC(=O)O)NC(=O)[C@H](Cc2ccc(-c3ccccc3)cc2)NC(=O)[C@H](C(C)C)NC(=O)[C@H](Cc2cccc(C(F)(F)F)c2)NC(=O)[C@H](CC(=O)O)NC(=O)[C@H](Cc2ccc(OCC(=O)O)cc2)NC(=O)[C@H](Cc2ccc(OCC(=O)O)cc2)NC(=O)CSC[C@@H](C(=O)N[C@@H](C)C(N)=O)NC(=O)[C@H]([C@@H](C)O)NC(=O)[C@H](C(C)C)NC(=O)[C@H](CC2CCCCC2)NC(=O)[C@H](CCN)NC1=O [Compound 1465] ?
27.4

Quick check: IC50 of Cc1cccc(C[C@@H]2NC(=O)[C@H](CC(=O)O)NC(=O)[C@H](Cc3ccc(C(=O)O)cc3)NC(=O)[C@H](Cc3ccncc3)NC(=O)CSC[C@@H](C(=O)N[C@@H](C)C(N)=O)NC(=O)[C@H]([C@@H](C)O)NC(=O)[C@H](C(C)C)NC(=O)[C@H](CC3CCCCC3)NC(=O)[C@H](CCN)NC(=O)[C@@H](CC(C)C)NC(=O)[C@H](CCCN)NC(=O)[C@H](C3CCCCC3)NC(=O)[C@H](Cc3ccc(-c4ccccc4)cc3)NC(=O)[C@H](C(C)C)NC2=O)c1 [Compound 1614] ?
14.4

---

biological target: human PD-1 / PD-L1-Ig binding on Jurkat cell line over-expressing human PD-1 (Jurkat-PD-1) (Homo sapiens, UniProt Q15116); construct: expressed in transfected cells; host or cells: Jurkat; assay: Jurkat-PD-1 Cell Binding High-Content Screening Assay (CBA); assay type: cell-based; conditions: Jurkat HPD1_PDL1 IC50, Jurkat-PD-1 cells, PE-labeled PD-L1-Ig 20 nM final
Sequence (Q15116 25-288): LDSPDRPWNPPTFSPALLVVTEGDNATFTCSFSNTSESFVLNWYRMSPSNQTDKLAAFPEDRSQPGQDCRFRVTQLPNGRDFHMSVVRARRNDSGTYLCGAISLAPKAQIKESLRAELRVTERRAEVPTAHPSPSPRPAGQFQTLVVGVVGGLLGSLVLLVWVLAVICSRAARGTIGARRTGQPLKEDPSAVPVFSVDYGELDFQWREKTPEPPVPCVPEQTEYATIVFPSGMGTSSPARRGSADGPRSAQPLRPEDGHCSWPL
Catalogue of pIC50 readings, one per entry.
Here pIC50 is given on a logarithmic scale as minus log10 of the concentration in mol/L.

Smiles input	pIC50
CC(C)C[C@H]1NC(=O)[C@H](CCCN)NC(=O)[C@H](CCCNC(N)=O)NC(=O)[C@H](Cc2ccc(-c3ccccc3)cc2)NC(=O)[C@H](C(C)C)NC(=O)[C@H](Cc2c[nH]c3ccccc23)NC(=O)[C@H](CC(=O)O)NC(=O)[C@H](Cc2ccc(OCC(=O)O)cc2)NC(=O)[C@H](Cc2ccncc2)NC(=O)CSC[C@@H](C(=O)N[C@@H](C)C(N)=O)NC(=O)[C@H]([C@@H](C)O)NC(=O)[C@H](C(C)C)NC(=O)[C@H](CC2CCCCC2)NC(=O)[C@H](Cc2c[nH]cn2)NC1=O	7.67

Then there is this molecule:
Quick check: pIC50 of CC(C)C[C@H]1NC(=O)[C@H](CCCN)NC(=O)[C@H](CN)NC(=O)[C@H](Cc2ccc(-c3ccccc3)cc2)NC(=O)[C@H](C(C)C)NC(=O)[C@H](Cc2c[nH]c3ccccc23)NC(=O)[C@H](CC(=O)O)NC(=O)[C@H](Cc2ccc(OCC(=O)O)cc2)NC(=O)[C@H](Cc2ccncc2)NC(=O)CSC[C@@H](C(=O)N[C@@H](C)C(N)=O)NC(=O)[C@H]([C@@H](C)O)NC(=O)[C@H](C(C)C)NC(=O)[C@H](CC2CCCCC2)NC(=O)[C@H](CCN)NC1=O ?
7.90

---

Molecular target: human PD-1 / PD-L1-Ig binding on Jurkat cell line over-expressing human PD-1 (Jurkat-PD-1) (Homo sapiens, UniProt Q15116)
Construct: expressed in transfected cells; host or cells: Jurkat
Assay: Jurkat-PD-1 Cell Binding High-Content Screening Assay (CBA)
Type: cell-based
Details: Jurkat-PD-1 cells, PE-labeled PD-L1-Ig 20 nM final; read-out: Jurkat HPD1_PDL1 IC50
Experimental: Example 3. Jurkat-PD-1 Cell Binding High-Content Screening Assay (CBA) Jurkat-PD-1 Cell Binding High-Content Screening Assay (CBA). Phycoerythrin (PE) was covalently linked to the Ig epitope tag of human PD-L1-Ig and fluorescently-labeled PD-L1-Ig was used for binding studies with a Jurkat cell line over-expressing human PD-1 (Jurkat-PD-1). Briefly, 8×10^3 Jurkat-hPD-1 cells were seeded into 384 well plates in 20 μl of DMEM supplemented with 10% fetal calf serum. […]
Where a SMILES comes first, the peptide text is derived from it. Bridges are numbered along the chain shown (N, C = ends). [ ]: non-standard residue; d: D form. ξ: configuration not given here. Bip = N[C@@H](Cc1ccc(-c2ccccc2)cc1)C(=O)O; ξW = NC(Cc1c[nH]c2ccccc12)C(=O)O; Cit = NC(=O)NCCC[C@H](N)C(=O)O; Dap = NC[C@H](N)C(=O)O
Catalogue of IC50 readings, one per entry.
Supply the numeric figure in nM, leaving out any unit text.

Compound	Unit symbol	Data value
Cc1cccc(C[C@@H]2NC(=O)[C@H](CC(=O)O)NC(=O)[C@H](Cc3ccc(OCC(=O)O)cc3)NC(=O)[C@H](CN)NC(=O)CSC[C@@H](C(=O)N[C@@H](C)C(=O)O)NC(=O)[C@H]([C@@H](C)O)NC(=O)[C@H](C(C)C)NC(=O)[C@H](CC3CCCCC3)NC(=O)[C@H](CCN)NC(=O)[C@@H](CC(C)C)NC(=O)[C@H](CCCN)NC(=O)[C@H](CCCNC(N)=O)NC(=O)[C@H](Cc3ccc(-c4ccccc4)cc3)NC(=O)[C@H](C(C)C)NC2=O)c1	nM	5

Then there is this compound:
Quick check: IC50 of CC(C)C[C@@H]1NC(=O)C(Cc2c[nH]c3ccccc23)NC(=O)[C@H](CC(=O)O)NC(=O)[C@H](Cc2ccc(O)cc2)NC(=O)[C@H](Cc2ccccc2)NC(=O)CSC[C@@H](C(=O)N[C@@H](C)C(N)=O)NC(=O)[C@H](CO)NC(=O)[C@H](C(C)C)NC(=O)[C@H](CC(C)C)NC(=O)[C@H](CC(N)=O)NC(=O)[C@@H](CC(C)C)NC(=O)[C@H](CN)NC(=O)[C@H](CCCNC(N)=O)NC(=O)[C@H](Cc2ccc(-c3ccccc3)cc2)NC1=O (stereo partly drawn) [Compound 1217] ({CH2CO}-FYD[ξW]L[Bip][Cit][Dap][dL]NLVSCA-NH2; thioether N-14) ?
25.4
